Biological target: Recombinant human Mat2a (Homo sapiens, UniProt P31153)
Sequence (P31153 whole entry): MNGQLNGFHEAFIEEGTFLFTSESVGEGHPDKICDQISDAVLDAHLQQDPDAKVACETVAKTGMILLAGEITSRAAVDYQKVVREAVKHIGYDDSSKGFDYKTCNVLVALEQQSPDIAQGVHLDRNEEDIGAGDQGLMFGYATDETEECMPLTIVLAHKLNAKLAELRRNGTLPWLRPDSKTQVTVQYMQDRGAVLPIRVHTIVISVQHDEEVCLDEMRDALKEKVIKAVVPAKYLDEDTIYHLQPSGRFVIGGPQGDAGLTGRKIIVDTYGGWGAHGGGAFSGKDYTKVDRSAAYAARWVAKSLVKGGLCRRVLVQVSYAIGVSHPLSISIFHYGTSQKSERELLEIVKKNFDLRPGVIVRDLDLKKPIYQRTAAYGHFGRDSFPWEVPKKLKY
Assay: Determination of Mat2A activity (384 well absorbance-based assay, Biomol Green)
Conditions: 12.5 nM Mat2A, 100 μM ATP and Methionine, 2% DMSO, 120 minutes at RT, absorbance at 635 nm
pIC50: −log10 of the molar value.
assayEndpoint: pIC50

Summary for this compound, Nc1nc(=O)n(C2CCOCC2)c2nc(C3CC3)ccc12 [Example 84] : pIC50 is 6.68

Summary for this compound, CCn1nccc1-n1c(=O)nc(N)c2ccc(C3CC3)nc21 [Example 61] : pIC50 is > 7.89

Summary for this compound, Nc1nc(=O)n(-c2ccccc2Cl)c2nc(C3CC3)ccc12 [Example 64] : pIC50 is > 7.89

Summary for this compound, Cc1ncccc1-n1c(=O)nc(N)c2ccc(C3CCC3)nc21 [Example 53] : pIC50 is > 7.89

Summary for this compound, Cc1ncccc1-n1c(=O)nc(O)c2ccc(C3CC3)cc21 [Example 98] : pIC50 is 6.70

Summary for this compound, Cc1ncccc1-n1c(=O)nc(N)c2ccc(C3CC3)nc21 [Example 7] : pIC50 is > 7.89

Summary for this compound, N#Cc1cccc(-n2c(=O)nc(N)c3ccc(C4CC4)nc32)c1F [Example 126] : pIC50 is > 7.89

* * *

Reported IC50 values are given for each entry in this list.
Biological target: Recombinant human Mat2a (Homo sapiens, UniProt P31153)
Assay: Determination of Mat2A activity (384 well absorbance-based assay, Biomol Green)
Conditions: 12.5 nM Mat2A, 100 μM ATP and Methionine, 2% DMSO, 120 minutes at RT, absorbance at 635 nm

Summary for this compound, COc1c(C#N)cccc1-n1c(=O)nc(N)c2ccc(C3CC3)nc21 : IC50 is < 13 nM

Summary for this compound, Nc1nc(=O)n(-c2cccc3[nH]ncc23)c2nc(C3CC3)ccc12 : IC50 is < 13 nM

Summary for this compound, Cc1ncccc1-n1c(=O)nc(N)c2ccc(C3CC3)cc21 : IC50 is < 13 nM

* * *

Target: Recombinant human Mat2a (Homo sapiens)
Assay: Determination of Mat2A activity (384 well absorbance-based assay, Biomol Green)
Details: 12.5 nM Mat2A, 100 μM ATP and Methionine, 2% DMSO, 120 minutes at RT, absorbance at 635 nm
assayEndpoint: IC50

Worked cases, answers included:
INSERT INTO assay_data (compound, observedvalue) VALUES
  ('Nc1nc(=O)n(-c2cccnc2Cl)c2nc(C3CC3)ccc12 (single isomer, unassigned) [Example 135]', '< 13 nM'),
  ('Cc1ncncc1-n1c(=O)nc(N)c2ccc(C3CC3)nc21 [Example 42]', '< 13 nM'),
  ('Cc1c(Cl)cccc1-n1c(=O)nc(N)c2ccc(C3CC3)nc21 [Example 129]', '< 13 nM');

Summary for this compound, COc1c(C#N)cccc1-n1c(=O)nc(N)c2ccc(C(C)C)nc21 [Example 38] : IC50 is < 13 nM

Summary for this compound, Nc1nc(=O)n(C2CCCOC2)c2nc(C3CC3)ccc12 (stereo not drawn) [Example 12] : IC50 is < 13 nM

Summary for this compound, Nc1nc(=O)n(-c2cccnc2C(F)(F)F)c2nc(C3CC3)ccc12 [Example 43] : IC50 is < 13 nM

Summary for this compound, Cc1ncccc1-n1c(=O)nc(N)c2ccc(C(C)C)nc21 [Example 16] : IC50 is < 13 nM

Summary for this compound, Cc1cccc(-n2c(=O)nc(N)c3ccc(C4CC4)nc32)c1 [Example 69] : IC50 is < 13 nM

Summary for this compound, N#Cc1cccc(-n2c(=O)nc(N)c3ccc(C4CC4)nc32)c1 [Example 151] : IC50 is < 13 nM

Summary for this compound, Nc1nc(=O)n(-c2cccnc2Cl)c2nc(C3CC3)ccc12 [Example 85] : IC50 is < 13 nM

Summary for this compound, Cc1c(C#N)cccc1-n1c(=O)nc(N)c2ccc(C3CC3)nc21 [Example 15] : IC50 is < 13 nM

Summary for this compound, Nc1nc(=O)c(-c2ccccc2Cl)c2cc(C3CC3)ccn12 [Example 111] : IC50 is < 13 nM

* * *

Biological target: Recombinant human Mat2a (Homo sapiens, UniProt P31153)
Assay: Determination of Mat2A activity (384 well absorbance-based assay, Biomol Green)
Conditions: 12.5 nM Mat2A, 100 μM ATP and Methionine, 2% DMSO, 120 minutes at RT, absorbance at 635 nm
assayEndpoint: IC50 (nM)
The figure you give is taken to be in nM; do not add the unit.

Summary for this compound, Nc1nc(=O)n([C@H]2CCCOC2)c2nc(C3CC3)ccc12 : IC50 is 42

Summary for this compound, Nc1nc(=O)n(-c2cc(F)ccc2Cl)c2nc(C3CC3)ccc12 : IC50 is 21

Summary for this compound, Cc1ncccc1-n1c(=O)nc(N)c2cc(C#N)c(C3CC3)nc21 : IC50 is 15

Summary for this compound, Nc1nc(=O)n([C@@H]2CCCOC2)c2nc([C@@H]3C[C@H]3F)ccc12 (mixture of isomers) : IC50 is 14

Summary for this compound, Cc1ncccc1-n1c(=O)nc(N)c2ccc(C3CCOC3)nc21 (centres unmarked) : IC50 is 27

Summary for this compound, Nc1nc(=O)n(C2CCOC2)c2nc(C3CC3)ccc12 (centres unmarked) : IC50 is 28
